Cited source: ChEMBL document CHEMBL1153270

C-X-C chemokine receptor type 2 (Homo sapiens) measurements of pKi, listed per entry.
Sequence (P25025 whole entry): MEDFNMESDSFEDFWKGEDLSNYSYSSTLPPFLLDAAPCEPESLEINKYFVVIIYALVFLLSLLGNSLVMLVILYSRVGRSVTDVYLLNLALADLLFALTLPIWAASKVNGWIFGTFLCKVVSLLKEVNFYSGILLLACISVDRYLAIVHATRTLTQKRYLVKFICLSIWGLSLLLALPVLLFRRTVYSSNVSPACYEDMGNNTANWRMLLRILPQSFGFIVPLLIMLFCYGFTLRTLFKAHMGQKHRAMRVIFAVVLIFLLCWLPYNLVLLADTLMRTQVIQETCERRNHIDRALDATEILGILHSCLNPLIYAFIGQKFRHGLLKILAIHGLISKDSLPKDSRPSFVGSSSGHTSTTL
Answers are plain numbers, as −log10 of the molar value.

STRUCTURE_SMILES | pKi
Cc1ccc([C@H](Nc2c(Nc3cccc(C(=O)N(C)C)c3O)c(=O)c2=O)C(C)(F)F)o1 | 8.00

Could I get pKi for every one of these entries?
1. CN(C)C(=O)c1cccc(Nc2c(N[C@@H](c3ccc4c(c3)OCO4)C(F)(F)F)c(=O)c2=O)c1O
2. CN(C)C(=O)c1cccc(Nc2c(N[C@H](CC(F)(F)F)c3ccco3)c(=O)c2=O)c1O
3. CN(C)C(=O)c1cccc(Nc2c(N[C@@H](c3ccc(Cl)o3)C(F)(F)F)c(=O)c2=O)c1O
4. Cc1ccc([C@H](Nc2c(Nc3cccc(C(=O)N(C)C)c3O)c(=O)c2=O)[C@H](C)F)o1

**Result**
1. 8.30
2. 8.30
3. 8.15
4. 7.89

**Query** Consider the compound shown here: C=CC(F)(F)[C@@H](Nc1c(Nc2cccc(C(=O)N(C)C)c2O)c(=O)c1=O)c1ccc(C)o1 What is its recorded pKi?
**Result** 8.05

* * *

UniProt:P25024 measurements of Ki, listed per entry.
Sequence (P25024 whole entry): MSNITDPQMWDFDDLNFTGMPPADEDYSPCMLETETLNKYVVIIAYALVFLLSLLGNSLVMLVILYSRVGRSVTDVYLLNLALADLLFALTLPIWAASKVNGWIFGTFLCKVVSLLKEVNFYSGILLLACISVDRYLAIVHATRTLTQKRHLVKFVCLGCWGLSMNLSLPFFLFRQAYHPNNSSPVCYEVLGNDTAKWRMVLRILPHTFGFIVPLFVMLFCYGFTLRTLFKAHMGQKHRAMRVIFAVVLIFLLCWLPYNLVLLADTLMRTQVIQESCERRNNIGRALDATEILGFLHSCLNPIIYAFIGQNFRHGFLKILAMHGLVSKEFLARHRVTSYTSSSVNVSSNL
Give bare numbers, in nM.

STRUCTURE_SMILES | Ki [nM]
CN(C)C(=O)c1cccc(Nc2c(N[C@@H](c3ccc(Cl)o3)C(F)(F)F)c(=O)c2=O)c1O | 34
Cc1ccoc1[C@H](Nc1c(Nc2cccc(C(=O)N(C)C)c2O)c(=O)c1=O)C(C)(F)F | 30
CC[C@@H](Nc1c(Nc2cccc(C(=O)N(C)C)c2O)c(=O)c1=O)c1ccccc1 | 40
CN(C)C(=O)c1cccc(Nc2c(N[C@H](CC(F)(F)F)c3ccco3)c(=O)c2=O)c1O | 100

Could I get Ki for every one of these entries?
1. Cc1ccc([C@H](Nc2c(Nc3cccc(C(=O)N(C)C)c3O)c(=O)c2=O)C(C)(C)F)o1
2. Cc1ccc([C@H](Nc2c(Nc3cccc(C(=O)N(C)C)c3O)c(=O)c2=O)C(F)(F)C(F)(F)F)o1
3. Cc1ccc([C@H](Nc2c(Nc3cccc(C(=O)N(C)C)c3O)c(=O)c2=O)C(C)(F)F)o1

**Result**
[24, 10, 6]

* * *

# PROTOCOL_TEXT: AUC in po dosed rat
# Assay type: ADME, organism-based
# SETTINGS: plasma
Please note: AUC exactly at 4 µM·h is NOT MET. Only values below 4 µM·h get MET.

MOLECULE | ASSIGNED_CLASS
CN(C)C(=O)c1cccc(Nc2c(N[C@@H](c3ccc4c(c3)OCO4)C(F)(F)F)c(=O)c2=O)c1O | NOT MET
Cc1ccc([C@H](Nc2c(Nc3cccc(C(=O)N(C)C)c3O)c(=O)c2=O)[C@H](C)F)o1 | MET
Cc1coc([C@H](Nc2c(Nc3cccc(C(=O)N(C)C)c3O)c(=O)c2=O)[C@H](C)F)c1 | MET
CC[C@@H](Nc1c(Nc2cccc(C(=O)N(C)C)c2O)c(=O)c1=O)c1ccc(C)o1 [NAVARIXIN ANHYDROUS] | NOT MET

**Query** I wonder whether CC[C@@H](Nc1c(Nc2cccc(C(=O)N(C)C)c2O)c(=O)c1=O)c1ccccc1 has AUC below 4 µM·h. Can you tell?
**Result** NOT MET

**Query** For Cc1ccc([C@H](Nc2c(Nc3cccc(C(=O)N(C)C)c3O)c(=O)c2=O)C(F)(F)F)o1 then?
**Result** NOT MET

**Query** For Cc1ccc([C@H](Nc2c(Nc3cccc(C(=O)N(C)C)c3O)c(=O)c2=O)C(C)(F)F)o1 then?
**Result** MET
